Where do these numbers come from? They come from patent US20260242759A1.

As shown below, each of these binders has a reported Shift (IC50 ratio without/with peptidomimetic), RLA value.
# MEASURED_TARGET: T1, full-length human muscarinic 1 receptor with a FLAG tag at the N-terminus (human, UniProt P11229 1-460)
# T1 sequence: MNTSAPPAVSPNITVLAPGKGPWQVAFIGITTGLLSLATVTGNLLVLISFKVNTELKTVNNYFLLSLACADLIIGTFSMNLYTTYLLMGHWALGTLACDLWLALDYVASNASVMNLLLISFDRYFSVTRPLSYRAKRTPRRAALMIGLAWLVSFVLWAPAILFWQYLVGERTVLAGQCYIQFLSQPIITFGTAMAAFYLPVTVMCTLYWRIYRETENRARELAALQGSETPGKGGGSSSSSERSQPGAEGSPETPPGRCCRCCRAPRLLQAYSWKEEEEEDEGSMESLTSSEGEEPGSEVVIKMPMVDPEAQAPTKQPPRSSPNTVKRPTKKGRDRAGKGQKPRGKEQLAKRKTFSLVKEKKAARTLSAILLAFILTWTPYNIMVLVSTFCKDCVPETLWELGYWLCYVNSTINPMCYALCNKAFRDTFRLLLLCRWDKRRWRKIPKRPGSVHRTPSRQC
# ASSAY_OVERVIEW: cell-based or functional assay
Positions of bridges follow the written chain, without caps; N, C: chain ends. Non-standard residues stand in square brackets, D forms with d. Lys(N3) = [N-]=[N+]=NCCCC[C@H](N)C(=O)O; Pra = C#CC[C@H](N)C(=O)O
Response field accepts a number only; no unit should be typed.

Look over these answered cases.
Ac-KKKFN[Pra]CKD[Lys(N3)]ILQMNLREYNLV-OH (triazole 6-10) [SBL-GQ-11] ... 7
Ac-KKKFAAVKDTILQLNLKEYNLV-OH [SBL-GQ-02] ... 2

Task item: Please look up its Shift (IC50 ratio without/with peptidomimetic), RLA: Ac-KKKFA[Pra]VKD[Lys(N3)]ILQLNLKEYNLV-OH (triazole 6-10) [SBL-GQ-05]
Reply: 1
